- Assay protocol: Biodistribution of the 99mTc(N) heterocomplexes in rats (organ uptake, heart accumulation, heart/lung and heart/liver ratios)
- Format: in vivo, female Sprague-Dawley rats
- Condition: rats, 30 min
Quantity measured: Heart/liver ratio in biodistribution

COCCC[P]1(CCCOC)CCN(CCOC)CC[P](CCCOC)(CCCOC)[99Tc+]12(#[N])[S]C(N(CCOC)CCOC)=[S]2 [[^99m−Tc(N) (PNP3) (DPODC)^+]]: 1.98

[P] CCOCCN1CC[P](CCCOC)(CCCOC)[99Tc+]2(#[N])([S]C(N(CCOCC)C(C)C)=[S]2)[P](CCCOC)(CCCOC)CC1 [[^99mTc(N) (PNP5) (ISOET)^+]]
[Q] CCOCCC[P]1(CCCOCC)CCN(CCOCC)CC[P](CCCOCC)(CCCOCC)[99Tc+]12(#[N])[S]C(N(CCOCC)CCOCC)=[S]2 [[^99mTc(N) (PNP6) (DBODC)^+]]
[R] CCOCCN1CC[P](CCCOC)(CCCOC)[99Tc+]2(#[N])([S]C(N(CCOCC)CCOCC)=[S]2)[P](CCCOC)(CCCOC)CC1 [[^99mTc(N) (PNP5) (DBODC)^+]]
[S] CCOCCN(CCOCC)C1=[S][99Tc+]2(#[N])([S]1)[P](CCCOC)(CCCOC)CCN(CCOC)CC[P]2(CCCOC)CCCOC [[^99m−Tc(N) (PNP3) (DBODC)^+]]
[Q] // ranking: key=Heart/liver ratio in biodistribution, reverse=True Respond with the label ranking, as requested.
[A] S, R, P, Q

----------
- Assay protocol: Biodistribution of the 99mTc(N) heterocomplexes in rats (organ uptake, heart accumulation, heart/lung and heart/liver ratios)
- Type: in vivo, female Sprague-Dawley rats
- Condition: 2 min post injection
Quantity measured: Biodistribution in rats: Adrenal glands (% dose/g)

[1] CCOCCN1CC[P](CCCOC)(CCCOC)[99Tc+]2(#[N])([S]C(N(CCOCC)CCOCC)=[S]2)[P](CCCOC)(CCCOC)CC1 [[^99mTc(N) (PNP5) (DBODC)]^+]
[2] CCOCCN1CC[P](CCCOC)(CCCOC)[99Tc+]2(#[N])([S]C(N(CCOCC)C(C)C)=[S]2)[P](CCCOC)(CCCOC)CC1 [[^99mTc(N) (PNP5) (ISOET)]^+]
[Q] Kindly identify the item with the lower Biodistribution in rats: Adrenal glands figure among these two: 1 and 2 Let me know the label of the one you choose.
[A] 2

----------
- Assay protocol: Biodistribution of the 99mTc(N) heterocomplexes in rats (organ uptake, heart accumulation, heart/lung and heart/liver ratios)
- Format: in vivo, female Sprague-Dawley rats
- Condition: rats, 30 min
Quantity measured: Heart accumulation (% ID/g)

Before answering, review these 2 worked examples.
CCOCCN1CC[P](CCCOC)(CCCOC)[99Tc+]2(#[N])([S]C(N(CCOCC)CCOCC)=[S]2)[P](CCCOC)(CCCOC)CC1 [[^99m−Tc(N) (PNP5) (DBODC)^+]]: 3.73
CCOCCN1CC[P](CCCOC)(CCCOC)[99Tc+]2(#[N])([S]C(N(CCOCC)C(C)C)=[S]2)[P](CCCOC)(CCCOC)CC1 [[^99m−Tc(N) (PNP5) (ISOET)^+]]: 2.47

[P] CCOCCC[P]1(CCCOCC)CCN(CCOCC)CC[P](CCCOCC)(CCCOCC)[99Tc+]12(#[N])[S]C(N(CCOCC)CCOCC)=[S]2 [[^99m−Tc(N) (PNP6) (DBODC)^+]]
[Q] CCOCCN(CCOCC)C1=[S][99Tc+]2(#[N])([S]1)[P](CCCOC)(CCCOC)CCN(CCOC)CC[P]2(CCCOC)CCCOC [[^99m−Tc(N) (PNP3) (DBODC)^+]]
[Q] Identify the item whose Heart accumulation is the smaller number: P or Q Identify your pick by its label.
[A] P
